Tested on: strains of Parvimonas micra
Test Protocol: MIC against anaerobes, agar dilution (CLSI), clinical isolates
Assay type: cell-based
Settings: Parvimonas micra strain 11
Property Measured: MIC

Before answering, review these 3 worked examples.
{"Molecule": "CN[C@H](CC(C)C)C(=O)N[C@H]1C(=O)N[C@@H](CC(N)=O)C(=O)N[C@H]2C(=O)N[C@H]3C(=O)N[C@H](C(=O)N[C@H](C(=O)O)c4cc(O)cc(O)c4-c4cc3ccc4O)[C@H](O)c3ccc(c(Cl)c3)Oc3cc2cc(c3O[C@@H]2O[C@H](CO)[C@@H](O)[C@H](O)[C@H]2O[C@H]2C[C@](C)(N)[C@H](O)[C@H](C)O2)Oc2ccc(cc2Cl)[C@H]1O [VAN, vancomycin, reference compound]", "MIC": "< 1 µg/mL"}
{"Molecule": "COc1ccc2ncc(=O)n(CCN[C@@H]3CC[C@@H]4[C@@H](C3)OC(=O)N4c3ccc4c(n3)NC(=O)CO4)c2c1", "MIC": "< 1 µg/mL"}
{"Molecule": "Cc1ncc([N+](=O)[O-])n1CCO [MTZ, metronidazole, reference compound]", "MIC": "< 1 µg/mL"}

We next turn to a different molecule, shown below.
Complete the entry with MIC for `Cc1ccc2ncc(=O)n(CCN[C@H]3CC[C@H]4[C@@H](C3)OC(=O)N4c3ccc4c(n3)NC(=O)CO4)c2c1`
16 to 64 µg/mL
